Target: Brain/CB1 (Mus musculus, UniProt P47746)
Sequence (P47746 whole entry): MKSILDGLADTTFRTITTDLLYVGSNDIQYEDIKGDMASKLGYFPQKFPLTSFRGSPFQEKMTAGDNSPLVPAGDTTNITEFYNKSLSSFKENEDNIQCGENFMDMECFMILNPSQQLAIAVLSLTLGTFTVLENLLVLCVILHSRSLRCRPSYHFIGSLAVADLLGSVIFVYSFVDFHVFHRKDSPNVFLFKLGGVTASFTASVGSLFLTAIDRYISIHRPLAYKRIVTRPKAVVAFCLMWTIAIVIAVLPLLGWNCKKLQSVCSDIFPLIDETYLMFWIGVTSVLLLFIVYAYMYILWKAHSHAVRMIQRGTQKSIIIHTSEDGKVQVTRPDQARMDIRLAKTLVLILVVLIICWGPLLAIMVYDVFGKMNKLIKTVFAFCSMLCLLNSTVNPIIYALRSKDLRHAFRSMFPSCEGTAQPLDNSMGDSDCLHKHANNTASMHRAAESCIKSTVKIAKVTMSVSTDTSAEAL
Assay: Functional GTPγS binding, Brain/CB1
readout: pIC50
Note on pIC50: it is the negative log10 of concentration, concentration in mol/L.

The following compounds have reported results that may help.
stdin: Data request, read-out pIC50, for C/C(N)=N\C(=N\S(=O)(=O)c1ccc2ccccc2c1)N1CCC(c2ccccc2)C(c2ccc(Cl)cc2)=N1 (stereo not drawn) [Compound 10f]
stdout: 6.88

stdin: Sample C/C(N)=N\C(=N\S(=O)(=O)c1cccc(C(F)(F)F)c1)N1CCC(c2ccccc2)C(c2ccc(Cl)cc2)=N1 (stereo not drawn) [Compound 10c] — what was its pIC50?
stdout: 6.98

stdin: Looking for the measured pIC50 of N/C(=N\C(=N\S(=O)(=O)c1ccc(C(F)(F)F)cc1)N1CCC(c2ccccc2)C(c2ccc(Cl)cc2)=N1)c1ccccc1 (stereo not drawn) [Compound 10r] , can you help?
stdout: 6.71

stdin: // returns reported pIC50 for input C/C(N)=N\C(=N\S(=O)(=O)c1ccc(Cl)cc1)N1CCC(c2ccccc2)C(c2ccc(Cl)cc2)=N1 (stereo not drawn) [Compound 10a]
stdout: 6.86

stdin: Requested field: pIC50. Item: N/C(=N\C(=N\S(=O)(=O)c1ccc(C(F)(F)F)cc1)N1CCC(c2ccccc2)C(c2ccc(F)cc2)=N1)c1ccc(F)cc1F (stereo not drawn) [Compound 10ze]
stdout: 6.35

stdin: Requested read-out: pIC50. Entry: CC(C)(C)/C(N)=N/C(=N/S(=O)(=O)c1ccc(C(F)(F)F)cc1)N1CCC(c2ccccc2)C(c2ccc(Cl)cc2)=N1 (stereo not drawn) [Compound 10o]
stdout: 7.74

---
stdin: Could you share which pIC50 value was measured for CC(C)C(N/C(=N/S(=O)(=O)c1ccc(C(F)(F)F)cc1)N1CCC(c2ccccc2)C(c2ccc(Br)cc2)=N1)C(N)=O (single isomer, unassigned) [Compound 26b] ?
stdout: 8.02

stdin: Fill in: pIC50 of C/C(N)=N\C(=N\S(=O)(=O)c1ccc(F)cc1)N1CCC(c2ccccc2)C(c2ccc(Cl)cc2)=N1 (stereo not drawn) [Compound 10j] is ___
stdout: 6.74

stdin: Query (compound): CC(C)(C)/C(N)=N/C(=N/S(=O)(=O)c1ccc(C(F)(F)F)cc1)N1CCC(c2ccccc2)C(c2ccc(Cl)cc2)=N1 (single isomer, unassigned) [Compound 10oE2] ; field requested: pIC50
stdout: 7.96

stdin: I'd like to know its pIC50. The compound in question is N/C(=N\C(=N\S(=O)(=O)c1ccc(C(F)(F)F)cc1)N1CCC(c2ccccc2)C(c2ccc(F)cc2)=N1)c1ccccc1F (stereo not drawn) [Compound 10zd]
stdout: 6.94

stdin: GET /values?readout=pIC50&item= CC(C)C(N/C(=N/S(=O)(=O)c1ccc(C(F)(F)F)cc1)N1CCC(c2ccccc2)C(c2ccc(Cl)cc2)=N1)C(N)=O (single isomer, unassigned) [Compound 29b]
stdout: 8.00

stdin: # input compound: O=S(=O)(/N=C(/N=C1\CCCCN1)N1CCC(c2ccccc2)C(c2ccc(Cl)cc2)=N1)c1ccc2ccccc2c1 (stereo not drawn) [Compound 15] ; wanted: its pIC50
stdout: 6.54

stdin: Need pIC50 of N/C(=N\C(=N\S(=O)(=O)c1ccc(C(F)(F)F)cc1)N1CCC(c2ccccc2)C(c2ccc(Cl)cc2)=N1)c1ccccn1 (single isomer, unassigned) [Compound 10vE1] , thanks.
stdout: 6.97

stdin: Find the recorded pIC50 belonging to N/C(=N\C(=N\S(=O)(=O)c1ccc(C(F)(F)F)cc1)N1CCC(c2ccccc2)C(c2ccc(Cl)cc2)=N1)c1ccccn1 (single isomer, unassigned) [Compound 10vE2] and report it.
stdout: 7.62

stdin: Requested read-out: pIC50. Entry: N/C(=N\C(=N\S(=O)(=O)c1ccc(C(F)(F)F)cc1)N1CCC(c2ccccc2)C(c2ccc(Cl)cc2)=N1)c1ccccc1F (single isomer, unassigned) [Compound 10tE1]
stdout: 7.29

stdin: Value lookup for pIC50; key = CC(C)/C(N)=N\C(=N\S(=O)(=O)c1ccc(C(F)(F)F)cc1)N1CCC(c2ccccc2)C(c2ccc(Cl)cc2)=N1 (stereo not drawn) [Compound 10m]
stdout: 6.82

Value source: patent US20250197359A1
